Where these numbers come from: patent US9376425B2

test target: human MDM2 (GST-hMDM2 1-188), interaction with biotinylated-p53 (1-83) (Homo sapiens, UniProt Q00987)
Construct: Amino acid residues 1-188 of human MDM2 were expressed
Sequence (Q00987 1-188): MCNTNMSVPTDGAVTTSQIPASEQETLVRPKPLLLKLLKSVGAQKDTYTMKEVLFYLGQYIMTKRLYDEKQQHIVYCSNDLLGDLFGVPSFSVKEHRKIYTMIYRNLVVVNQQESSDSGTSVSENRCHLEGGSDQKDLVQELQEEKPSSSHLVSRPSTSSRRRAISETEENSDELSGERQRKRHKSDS
test method notes: improved HTRF assay (HTRF2 assay), inhibition of HDM2-p53 interaction
test parameters: 0.2 nM GST-hMDM2, 0.5 nM biotinylated-p53, 100 mM KF
pIC50: −log10 of the molar value.
# label = t if pIC50 >= 8 else f

Worked examples, 8 compounds total:
compound	assigned label
O=C(O)C[C@H]1O[C@H](c2cccc(Cl)c2)[C@@H](c2ccc(Cl)cc2)N([C@H](CN(c2ccccc2F)S(=O)(=O)C2CC2)C(F)(F)F)C1=O (single isomer, unassigned) [Example 274]	t
CC(C)(C)S(=O)(=O)C[C@H](CC(F)(F)F)N1C(=O)[C@@](C)(CC(=O)O)O[C@H](c2cccc(Cl)c2)[C@H]1c1ccc(Cl)cc1 (single isomer, unassigned) [Example 341]	t
CC[C@@H](CS(=O)(=O)C(C)(C)C)N1C(=O)[C@@H](CC(=O)NC#N)O[C@H](c2cccc(Cl)c2)[C@H]1c1ccc(Cl)cc1 [Example 345]	t
CC[C@@H]([C@H](C)S(=O)(=O)C(C)C)N1C(=O)[C@@H](CC(=O)O)O[C@H](c2cccc(Cl)c2)[C@H]1c1ccc(Cl)cc1 (single isomer, unassigned) [Example 416]	t
CC[C@@H](CN(c1ccccc1F)S(=O)(=O)C1CC1)N1C(=O)[C@H](CC(=O)NS(=O)(=O)C(C)C)O[C@H](c2cccc(Cl)c2)[C@H]1c1ccc(Cl)cc1 (single isomer, unassigned) [Example 258]	t
CC(C)(C)S(=O)(=O)C[C@H](CC(F)(F)F)N1C(=O)[C@@](C)(CC(=O)O)O[C@H](c2cccc(Cl)c2)[C@H]1c1ccc(Cl)cc1 (single isomer, unassigned) [Example 340]	f
CC(C)(C)S(=O)(=O)C[C@@H](C1CCC1)N1C(=O)[C@@H](CC(=O)O)O[C@H](c2cccc(Cl)c2)[C@H]1c1ccc(Cl)cc1 (single isomer, unassigned) [Example 273]	f
CC(C)(C)S(=O)(=O)[C@H]1CCCC[C@@H]1N1C(=O)[C@@H](CC(=O)O)O[C@H](c2cccc(Cl)c2)[C@H]1c1ccc(Cl)cc1 [Example 249]	t

Assess whether reported pIC50 for CC[C@@H](CS(=O)(=O)C1CCOCC1)N1C(=O)[C@@H](CC(=O)O)O[C@H](c2cccc(Cl)c2)[C@H]1c1ccc(Cl)cc1 (single isomer, unassigned) [Example 187] sits at 8 or higher.
t

API: above_or_equal(metric=pIC50, cutoff=8) for item CC(C)[C@@H](CN(c1ccccc1)S(=O)(=O)C1CC1)N1C(=O)[C@@H](CC(=O)O)O[C@H](c2cccc(Cl)c2)[C@H]1c1ccc(Cl)cc1 (single isomer, unassigned) [Example 192]
t
